tested on: Peripheral blood mononuclear cells (PBMCs); test: Cytokine release assay (multiplex bead assay IL-10, IL-13, IFN-g) and analysis of population coverage; format: cell-based, human; settings: cytokine release greater than 50 pg/ml in one or more of IL-13, IL-10, IFN-g; 50 mould allergic subjects; 100 μg/ml; 5 days
Where no end group is shown, it is not given here. [ ]: non-standard residue; d: D form. Nle = CCCC[C@H](N)C(=O)O
Please use fulfilled whenever % responders is not below 40%, and not fulfilled whenever it is.

INSERT INTO results (substance, target_under_test, class) VALUES
  ('KEYQKIFPSIQVI [Alt09]', 'Peripheral blood mononuclear cells (PBMCs)', 'not fulfilled'),
  ('IFRSLSKEDPDY [Alt04]', 'Peripheral blood mononuclear cells (PBMCs)', 'not fulfilled'),
  ('TYYNSLGFNIKATNGGTL [Alt01]', 'Peripheral blood mononuclear cells (PBMCs)', 'not fulfilled'),
  ('KDITYVATATLPNY [Alt02]', 'Peripheral blood mononuclear cells (PBMCs)', 'not fulfilled'),
  ('WSWKIGPAIATGNT [Alt28]', 'Peripheral blood mononuclear cells (PBMCs)', 'fulfilled'),
  ('KQLLMLSAKRMKVAFK [Alt05]', 'Peripheral blood mononuclear cells (PBMCs)', 'not fulfilled'),
  ('KYWLYFYKLHPEK [Alt32]', 'Peripheral blood mononuclear cells (PBMCs)', 'not fulfilled'),
  ('KDAYITLVTLPKSS [Alt03]', 'Peripheral blood mononuclear cells (PBMCs)', 'not fulfilled'),
  ('DITYVATATLPNYSR [Alt02A]', 'Peripheral blood mononuclear cells (PBMCs)', 'not fulfilled'),
  ('LQFTLYRPRDLLS [Alt07]', 'Peripheral blood mononuclear cells (PBMCs)', 'not fulfilled'),
  ('GLHFRERKTGSLVIT [Alt21]', 'Peripheral blood mononuclear cells (PBMCs)', 'not fulfilled'),
  ('KLWHSMIP-Nle-GRDAK (KLWHSMIP[Nle]GRDAK) [Alt24C]', 'Peripheral blood mononuclear cells (PBMCs)', 'not fulfilled'),
  ('KRSLLVFAVRSS-Nle-ELRK [Alt27A]', 'Peripheral blood mononuclear cells (PBMCs)', 'fulfilled'),
  ('TLYRPRDLLSLLNE [Alt08]', 'Peripheral blood mononuclear cells (PBMCs)', 'not fulfilled'),
  ('KLWHSMIPMGRDAK [Alt24]', 'Peripheral blood mononuclear cells (PBMCs)', 'not fulfilled'),
  ('LAITYNSRAEGAEK [Alt20]', 'Peripheral blood mononuclear cells (PBMCs)', 'not fulfilled'),
  ('GWGV-Nle-VSHRSGET (GWGV[Nle]VSHRSGET) [Alt14A]', 'Peripheral blood mononuclear cells (PBMCs)', 'fulfilled'),
  ('KQLLMLSAKR-Nle-KVAFK [Alt05C]', 'Peripheral blood mononuclear cells (PBMCs)', 'not fulfilled'),
  ('KKVSMAIAKAAAAEK [Alt11]', 'Peripheral blood mononuclear cells (PBMCs)', 'not fulfilled'),
  ('SLGFNIKATNGGTLD [Alt01A]', 'Peripheral blood mononuclear cells (PBMCs)', 'not fulfilled'),
  ('GYTGKIKIAMDVASSE [Alt15]', 'Peripheral blood mononuclear cells (PBMCs)', 'fulfilled');
